Tested on: Aspergillus flavus
Test Summary: Antifungal activity against Aspergillus flavus after 24 hrs
Format: functional
Measured Property: MIC

Req: Lookup: MIC / Aspergillus flavus / Cc1cc(=O)oc2cc(OCC(O)Cn3nnnc3C)cc(OCC(O)Cn3nnnc3C)c12 (stereo unspecified)
Resp: 32 to 512 µg/mL

Req: Record lookup: for Aspergillus flavus, what MIC belongs to CCn1cc(C(=O)O)c(=O)c2cc(F)c(N3CCNCC3)cc21 [NORFLOXACIN] ?
Resp: 1 to 16 µg/mL

Req: Field: MIC (Aspergillus flavus). Entry: Cc1cc(=O)oc2cc(OCC(O)Cn3cnnn3)ccc12 (stereo unspecified)
Resp: 8 to 512 µg/mL

Req: Test system Aspergillus flavus; read-out MIC; what value for OC(Cn1cncn1)(Cn1cncn1)c1ccc(F)cc1F [FLUCONAZOLE] ?
Resp: 1 to 256 µg/mL

Req: Lab request: please report MIC under test system Aspergillus flavus for Cc1cc(=O)oc2cc(OCC(O)Cn3cnnn3)cc(OCC(O)Cn3cnnn3)c12 (stereo unspecified)
Resp: 32 to 512 µg/mL

Req: Field: MIC (Aspergillus flavus). Entry: Cc1cc(=O)oc2cc(OCC(O)Cn3nnnc3C)ccc12 (stereo unspecified)
Resp: 4 to 512 µg/mL
